# Test system: HCT116
# protocol notes: In Vitro cytotoxicity measured by the cell colony formation assay
# Assay type: cell-based
# settings: Homo sapiens, HCT-116; 72 h drug incubation, colonies counted after 7 days; concentration producing 50% inhibition of colony formation; read-out: IN VITRO ID 50 (nm) HCT116
Measured IC50 of individual entries

Using the record for CCCC(=O)O[C@H]1C[C@H]2OC[C@@]2(OC(C)=O)[C@H]2[C@H](OC(=O)c3ccccc3)[C@]3(O)C[C@H](OC(=O)[C@H](O)[C@@H](NC(=O)c4cccs4)c4cccs4)C(C)=C([C@@H](O)C(=O)[C@]12C)C3(C)C [Compound 4454] , report its IC50.
< 1 nM

Using the record for CCC(=O)O[C@H]1C[C@H]2OC[C@@]2(OC(C)=O)[C@H]2[C@H](OC(=O)c3ccccc3)[C@]3(O)C[C@H](OC(=O)[C@H](O)[C@H](C=C(C)C)NC(=O)OC(C)(C)C)C(C)=C([C@@H](O)C(=O)[C@]12C)C3(C)C [Compound 1351] , report its IC50.
< 1 nM

====

# Tested on: HCT116
# protocol notes: In Vitro cytotoxicity measured by the cell colony formation assay
# Type: cell-based
# settings: Homo sapiens, HCT-116; 72 h drug incubation, colonies counted after 7 days; concentration producing 50% inhibition of colony formation; read-out: IN VITRO ID 50 (nm) HCT116
# Method: In Vitro cytotoxicity measured by the cell colony formation assay Four hundred cells (HCT116) were plated in 60 mm Petri dishes containing 2.7 mL of medium (modified McCoy's 5a medium containing 10% fetal bovine serum and 100 units/mL penicillin and […] streptomycin). The cells were incubated in a CO2 incubator at 37 °C for 5 h for attachment to the bottom of Petri dishes. […] The cell colonies were counted using a colony counter after incubation for 7 days. […]
pIC50: −log10 of the molar value.
value kind: pIC50

Known results for compounds:
{"compound": "CCCC(=O)OC1CC2OCC2(OC(C)=O)C2C(OC(=O)c3ccccc3)C3(O)CC(OC(=O)C(O)C(NC(=O)OCC(C)C)c4ccco4)C(C)=C(C(O)C(=O)C12C)C3(C)C (centres unmarked)", "pIC50": "> 9.00"}
{"compound": "CC(=O)O[C@@]12CO[C@@H]1C[C@H](O)[C@@]1(C)C(=O)[C@H](O)C3=C(C)[C@@H](OC(=O)[C@H](O)[C@@H](NC(=O)OC(C)(C)C)c4ccccc4)C[C@@](O)([C@@H](OC(=O)c4ccccc4)[C@H]21)C3(C)C [docetaxel, reference compound]", "pIC50": 9.22}
{"compound": "CCCC(=O)O[C@H]1C[C@H]2OC[C@@]2(OC(C)=O)[C@H]2[C@H](OC(=O)c3ccccc3)[C@]3(O)C[C@H](OC(=O)[C@H](O)[C@H](C=C(C)C)NC(=O)OCC(C)C)C(C)=C([C@@H](O)C(=O)[C@]12C)C3(C)C", "pIC50": "> 8.00"}
{"compound": "CCC(=O)OC1CC2OCC2(OC(C)=O)C2C(OC(=O)c3ccccc3)C3(O)CC(OC(=O)C(O)C(NC(=O)C=C(C)C)c4cccs4)C(C)=C(C(O)C(=O)C12C)C3(C)C (centres unmarked)", "pIC50": "> 9.00"}

Could you now look at the following compound, please?
Using the record for CCCC(=O)OC1CC2OCC2(OC(C)=O)C2C(OC(=O)c3ccccc3)C3(O)CC(OC(=O)C(O)C(NC(=O)OC(C)(C)C)c4cccs4)C(C)=C(C(O)C(=O)C12C)C3(C)C (centres unmarked) , report its pIC50.
> 9.00
